# test_system: EGFR (ErbB1) T790M L858R (Homo sapiens (Human), UniProt P00533, L858R/T790M)
# Sequence (P00533 25-1210 T790M/L858R): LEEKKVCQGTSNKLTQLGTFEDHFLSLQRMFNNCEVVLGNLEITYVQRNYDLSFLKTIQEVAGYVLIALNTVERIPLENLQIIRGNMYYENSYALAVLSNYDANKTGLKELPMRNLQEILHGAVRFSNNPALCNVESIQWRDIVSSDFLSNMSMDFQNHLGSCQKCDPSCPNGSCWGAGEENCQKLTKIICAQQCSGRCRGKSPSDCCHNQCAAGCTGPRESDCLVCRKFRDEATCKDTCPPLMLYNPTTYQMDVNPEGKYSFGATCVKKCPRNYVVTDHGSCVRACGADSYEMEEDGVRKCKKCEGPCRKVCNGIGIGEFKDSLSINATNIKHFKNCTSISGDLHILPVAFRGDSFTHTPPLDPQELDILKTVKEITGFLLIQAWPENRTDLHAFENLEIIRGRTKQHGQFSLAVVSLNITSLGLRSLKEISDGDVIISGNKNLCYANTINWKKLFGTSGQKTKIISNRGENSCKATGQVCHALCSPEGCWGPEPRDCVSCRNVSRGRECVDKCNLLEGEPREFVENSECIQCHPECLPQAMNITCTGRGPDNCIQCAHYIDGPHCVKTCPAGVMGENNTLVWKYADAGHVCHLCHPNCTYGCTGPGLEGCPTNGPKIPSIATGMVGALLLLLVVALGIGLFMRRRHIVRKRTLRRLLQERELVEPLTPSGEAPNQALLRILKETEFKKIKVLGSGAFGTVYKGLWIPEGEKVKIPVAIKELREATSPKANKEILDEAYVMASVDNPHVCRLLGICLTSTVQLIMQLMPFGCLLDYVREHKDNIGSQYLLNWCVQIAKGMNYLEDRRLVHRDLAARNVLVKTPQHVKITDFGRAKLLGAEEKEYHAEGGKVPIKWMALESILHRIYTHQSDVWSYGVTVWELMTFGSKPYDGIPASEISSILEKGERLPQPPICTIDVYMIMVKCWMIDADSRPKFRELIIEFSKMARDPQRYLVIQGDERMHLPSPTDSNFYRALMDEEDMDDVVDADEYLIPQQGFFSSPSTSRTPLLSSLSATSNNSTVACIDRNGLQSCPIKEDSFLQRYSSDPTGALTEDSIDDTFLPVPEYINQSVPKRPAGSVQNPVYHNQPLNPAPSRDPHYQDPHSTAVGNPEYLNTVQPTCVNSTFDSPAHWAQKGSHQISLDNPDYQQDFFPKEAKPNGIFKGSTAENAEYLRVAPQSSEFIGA
# test_description: Z'-LYTE kinase inhibition assay, EGFR L858R/T790M
# Assay type: biochemical
# run_parameters: read-out: % inhibition against EGFR L858R/T790M (Compound at 0.0137 μM)
Consider the following molecules; for each one, report its inhibition at 0.0137 µM.

A selection of reference data follows.
CN(C)C/C=C/C(=O)Nc1cccc(-c2cccc3cnc(Nc4ccc(N5CCN(C)CC5)cc4)nc23)c1F: > 50%
C=CC(=O)Nc1cccc(-c2cccc3cnc(Nc4ccc(N5CCN(C(=O)NC)CC5)cc4)nc23)c1: > 50%
C=CC(=O)Nc1cccc(-c2cccc3cnc(Nc4ccc(N5CCN(C)CC5)nc4OC)nc23)c1: > 50%

From here, focus on the item given below.
What inhibition at 0.0137 µM appears in the records for this molecule with EGFR (ErbB1) T790M L858R (Homo sapiens (Human), UniProt P00533, L858R/T790M)? C=CC(=O)Nc1cccc(-c2cccc3cnc(Nc4ccc(NCCF)cc4)nc23)c1
< 50%

---

Consider the following compounds; for each one, report its inhibition at 0.041 µM.
# test_system: EGFR (ErbB1) (Homo sapiens (Human), UniProt P00533)
# Sequence (P00533 25-1210): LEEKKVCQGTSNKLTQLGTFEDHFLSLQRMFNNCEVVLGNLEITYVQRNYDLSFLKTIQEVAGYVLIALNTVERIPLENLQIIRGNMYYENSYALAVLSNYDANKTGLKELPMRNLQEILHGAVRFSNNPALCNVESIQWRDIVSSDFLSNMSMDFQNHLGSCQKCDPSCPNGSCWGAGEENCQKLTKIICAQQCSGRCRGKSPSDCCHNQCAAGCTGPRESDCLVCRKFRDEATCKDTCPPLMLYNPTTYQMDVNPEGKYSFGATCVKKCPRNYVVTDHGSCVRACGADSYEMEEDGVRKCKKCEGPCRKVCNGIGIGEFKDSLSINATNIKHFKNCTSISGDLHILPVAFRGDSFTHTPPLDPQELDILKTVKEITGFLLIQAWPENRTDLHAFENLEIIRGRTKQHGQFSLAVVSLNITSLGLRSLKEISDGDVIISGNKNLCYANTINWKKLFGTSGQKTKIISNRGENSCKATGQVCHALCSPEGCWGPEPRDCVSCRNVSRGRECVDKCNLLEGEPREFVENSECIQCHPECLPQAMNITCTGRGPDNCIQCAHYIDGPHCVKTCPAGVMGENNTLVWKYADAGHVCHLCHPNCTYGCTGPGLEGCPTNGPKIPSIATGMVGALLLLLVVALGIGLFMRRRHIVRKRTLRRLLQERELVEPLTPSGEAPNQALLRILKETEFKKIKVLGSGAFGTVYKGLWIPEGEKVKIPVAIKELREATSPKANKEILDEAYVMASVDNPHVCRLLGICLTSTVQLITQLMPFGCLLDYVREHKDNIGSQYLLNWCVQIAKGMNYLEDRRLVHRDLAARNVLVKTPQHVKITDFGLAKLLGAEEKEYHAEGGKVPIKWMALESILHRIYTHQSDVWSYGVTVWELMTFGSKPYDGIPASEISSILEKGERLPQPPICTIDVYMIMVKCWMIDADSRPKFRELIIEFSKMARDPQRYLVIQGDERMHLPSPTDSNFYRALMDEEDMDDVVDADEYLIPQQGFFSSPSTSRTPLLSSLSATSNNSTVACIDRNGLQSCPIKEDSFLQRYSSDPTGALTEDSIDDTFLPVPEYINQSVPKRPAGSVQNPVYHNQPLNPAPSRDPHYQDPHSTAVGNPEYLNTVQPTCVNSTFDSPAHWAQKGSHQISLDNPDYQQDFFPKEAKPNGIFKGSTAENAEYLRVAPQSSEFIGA
# test_description: Z'-LYTE kinase inhibition assay, EGFR
# Format: biochemical
# run_parameters: read-out: % inhibition against EGFR (Compound at 0.041 μM)

# batch size: 2; output inhibition at 0.041 µM per entry
1. C=CC(=O)N1CCC=C(c2cccc3cnc(Nc4ccc(N5CCN(C)CC5)cc4)nc23)C1
2. C=CC(=O)Nc1cccc(-c2cccc3cnc(Nc4ccc(N[C@@H]5CCN(C)C5)cc4)nc23)c1

< 50%
> 50%

# batch size: 3; output inhibition at 0.041 µM per entry
1. C=CC(=O)Nc1cccc(-c2cccc3cnc(Nc4ccc(N5CCN(CCO)CC5)cc4F)nc23)c1
2. C=CC(=O)Nc1cncc(-c2cccc3cnc(Nc4ccc(N5CCN(CCF)CC5)cc4)nc23)c1
3. C=CC(=O)Nc1cccc(-c2cccc3cnc(Nc4ccc(N5CCN(CC(F)F)CC5)cc4)nc23)c1

["< 50%", "< 50%", "< 50%"]

# batch size: 2; output inhibition at 0.041 µM per entry
1. C=CC(=O)Nc1cccc(-c2cccc3cnc(Nc4ccc(OC5CCN(CCF)CC5)cc4)nc23)c1
2. C=CC(=O)Nc1cccc(-c2cccc3cnc(Nc4ccc(N5CCN(C)CC5)nc4)nc23)c1F

["< 50%", "> 50%"]

---

Consider the following molecules; for each one, report its inhibition at 0.041 µM.
# test_system: EGFR (ErbB1) (Homo sapiens (Human))
# test_description: Z'-LYTE kinase inhibition assay, EGFR
# Type: biochemical
# run_parameters: read-out: % inhibition against EGFR (Compound at 0.041 μM)

A selection of reference data follows.
C=CC(=O)Nc1cccc(-c2cccc3cnc(Nc4ccc(N5CCN(C)CC5)cc4F)nc23)c1: > 50%
C=CC(=O)Nc1cccc(-c2cccc3cnc(Nc4ccc(O[C@H]5CCOC5)cc4)nc23)c1: < 50%
C=CC(=O)Nc1cccc(-c2cccc3cnc(Nc4ccc(OC5CCN(C)CC5F)cc4)nc23)c1 (stereo not drawn): < 50%
C=CC(=O)Nc1cccc(-c2cccc3cnc(Nc4ccc(N5CCN(CCOC)CC5)cc4F)nc23)c1: < 50%
C=CC(=O)Nc1cccc(-c2cccc3cnc(Nc4ccc(OC5CCN(CCO)CC5)cc4)nc23)c1: > 50%

# batch size: 2; output inhibition at 0.041 µM per entry
1. C=CC(=O)Nc1cccc(-c2cccc3cnc(Nc4ccc(N5CCN(C)CC5)cc4)nc23)c1
2. C=CC(=O)Nc1cccc(-c2cccc3cnc(Nc4cc(F)c(N5CCN(C)CC5)c(F)c4)nc23)c1

1: > 50%; 2: < 50%

---

# test_system: FGFR1 (Homo sapiens (Human), UniProt P11362)
# Sequence (P11362 22-822): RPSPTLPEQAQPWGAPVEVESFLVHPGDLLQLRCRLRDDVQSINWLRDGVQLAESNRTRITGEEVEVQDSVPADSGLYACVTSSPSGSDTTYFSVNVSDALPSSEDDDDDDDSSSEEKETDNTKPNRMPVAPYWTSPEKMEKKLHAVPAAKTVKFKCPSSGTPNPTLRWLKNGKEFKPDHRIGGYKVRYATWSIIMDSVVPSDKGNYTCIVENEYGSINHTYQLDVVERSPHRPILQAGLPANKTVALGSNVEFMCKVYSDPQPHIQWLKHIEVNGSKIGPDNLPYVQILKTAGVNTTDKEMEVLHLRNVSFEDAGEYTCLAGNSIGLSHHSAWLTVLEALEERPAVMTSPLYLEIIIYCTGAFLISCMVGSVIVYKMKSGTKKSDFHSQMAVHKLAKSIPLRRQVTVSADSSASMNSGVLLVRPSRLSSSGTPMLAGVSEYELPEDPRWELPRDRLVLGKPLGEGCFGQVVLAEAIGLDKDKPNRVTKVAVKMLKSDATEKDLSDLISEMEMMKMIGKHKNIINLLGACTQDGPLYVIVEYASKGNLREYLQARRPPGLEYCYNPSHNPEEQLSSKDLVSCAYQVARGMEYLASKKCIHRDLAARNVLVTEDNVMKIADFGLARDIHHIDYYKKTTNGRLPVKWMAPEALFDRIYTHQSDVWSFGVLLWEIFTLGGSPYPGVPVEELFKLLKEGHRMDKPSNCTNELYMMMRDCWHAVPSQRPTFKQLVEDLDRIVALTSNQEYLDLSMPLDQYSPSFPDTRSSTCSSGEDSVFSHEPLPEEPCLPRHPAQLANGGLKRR
Consider the following compounds; for each one, report its IC50.

A selection of reference data follows.
C=CC(=O)Nc1cccc(-c2cccc3cnc(Nc4ccc(N5CCN(C)CC5)nc4)nc23)c1: < 100 nM
C=CC(=O)Nc1cccc(-c2cccc3cnc(Nc4ccc(N5CCN(CCO)CC5)cc4)nc23)c1: < 100 nM

From here, focus on the item given below.
Which value of IC50 has been reported for C=CC(=O)Nc1cccc(-c2cccc3cnc(Nc4ccc(N5CCN(C)CC5)cc4)nc23)c1 in the records?
< 100 nM

---

Consider the following compounds; for each one, report its inhibition at 0.041 µM.
# test_system: JAK2 (Homo sapiens (Human), UniProt O60674)
# Sequence (O60674 whole entry): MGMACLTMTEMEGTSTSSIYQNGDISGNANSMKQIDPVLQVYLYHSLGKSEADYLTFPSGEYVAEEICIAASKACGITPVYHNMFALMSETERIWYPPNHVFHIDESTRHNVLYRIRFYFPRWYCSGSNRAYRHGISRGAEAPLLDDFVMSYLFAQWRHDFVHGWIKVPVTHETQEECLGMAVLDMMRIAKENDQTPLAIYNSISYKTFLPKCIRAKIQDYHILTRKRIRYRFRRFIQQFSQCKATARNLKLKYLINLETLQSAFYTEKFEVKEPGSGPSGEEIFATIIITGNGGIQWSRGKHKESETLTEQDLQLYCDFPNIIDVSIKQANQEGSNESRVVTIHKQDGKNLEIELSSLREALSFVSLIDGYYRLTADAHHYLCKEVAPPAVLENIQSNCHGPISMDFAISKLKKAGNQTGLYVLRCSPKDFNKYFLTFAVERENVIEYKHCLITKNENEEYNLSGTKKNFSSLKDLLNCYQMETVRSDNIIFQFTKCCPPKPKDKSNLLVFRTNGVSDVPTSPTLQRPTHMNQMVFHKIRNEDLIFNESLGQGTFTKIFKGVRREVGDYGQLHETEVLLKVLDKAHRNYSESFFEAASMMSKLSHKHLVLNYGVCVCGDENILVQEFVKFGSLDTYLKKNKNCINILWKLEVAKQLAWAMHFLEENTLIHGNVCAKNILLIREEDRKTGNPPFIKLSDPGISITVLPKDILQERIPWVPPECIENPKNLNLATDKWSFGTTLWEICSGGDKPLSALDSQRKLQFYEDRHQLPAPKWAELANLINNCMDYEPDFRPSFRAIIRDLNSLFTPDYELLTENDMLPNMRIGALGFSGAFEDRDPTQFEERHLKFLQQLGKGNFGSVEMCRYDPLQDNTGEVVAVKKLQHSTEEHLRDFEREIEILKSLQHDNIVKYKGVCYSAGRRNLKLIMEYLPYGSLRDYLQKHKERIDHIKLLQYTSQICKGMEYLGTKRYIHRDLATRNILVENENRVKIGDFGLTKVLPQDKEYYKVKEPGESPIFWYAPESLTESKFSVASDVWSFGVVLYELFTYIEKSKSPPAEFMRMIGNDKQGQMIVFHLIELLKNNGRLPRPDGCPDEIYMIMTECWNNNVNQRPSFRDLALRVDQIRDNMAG
# test_description: Z'-LYTE kinase inhibition assay, JAK2
# Format: biochemical
# run_parameters: compound at 0.041 μM; read-out: % inhibition against JAK2

A selection of reference data follows.
c1ccc(-c2cccc3cnc(Nc4ccc(N5CCOCC5)cc4)nc23)cc1: > 50%
CC(=O)Nc1cccc(-c2cccc3cnc(Nc4ccc(N5CCN(C)CC5)cc4)nc23)c1: > 50%
C=CC(=O)Nc1cccc(-c2nccc3cnc(Nc4ccc(N5CCOCC5)cc4)nc23)c1: < 50%
Fc1cccc(-c2cccc3cnc(Nc4ccc(N5CCOCC5)cc4)nc23)c1: > 50%
C=CC(=O)Nc1cccc(-c2cccc3cnc(Nc4ccc(N5CCN(C(C)=O)CC5)cc4)nc23)c1: > 50%
C=CC(=O)Nc1cccc(-c2c(C)ccc3cnc(Nc4ccc(N5CCOCC5)cc4)nc23)c1: < 50%

# batch size: 5; output inhibition at 0.041 µM per entry
1. C=CC(=O)Nc1cccc(-c2cccc3cnc(Nc4ccc(N5CCN(C)CC5)cc4)nc23)c1
2. C=CC(=O)Nc1cccc(-c2cccc3cnc(Nc4ccc(N5CCOCC5)cc4)nc23)c1
3. Fc1ccc(OCCN2CCOCC2)cc1-c1cccc2cnc(Nc3ccc(N4CCOCC4)cc3)nc12
4. C=CC(=O)Nc1cncc(-c2cccc3cnc(Nc4ccc(N5CCN(C)CC5)cc4)nc23)c1
5. Clc1ccccc1-c1cccc2cnc(Nc3ccc(N4CCNCC4)cc3)nc12

> 50%
> 50%
< 50%
< 50%
> 50%

---

# test_system: UniProt P00533
# test_description: Z'-LYTE kinase inhibition assay, EGFR
# Type: biochemical
# run_parameters: read-out: % inhibition against EGFR (Compound at 0.041 μM)
Consider the following compounds; for each one, report its inhibition at 0.041 µM.

A selection of reference data follows.
C=CC(=O)Nc1cccc(-c2cccc3cnc(Nc4ccc(N5CCN(C)CC5)cc4Cl)nc23)c1: > 50%
C=CC(=O)Nc1cccc(-c2cccc3cnc(Nc4ccc(N[C@H]5CCN(C)C5)cc4)nc23)c1: > 50%
C=CC(=O)Nc1cccc(-c2cccc3cnc(Nc4ccc(OC5CCOCC5)cc4)nc23)c1: < 50%
C=CC(=O)Nc1cccc(-c2cccc3cnc(Nc4ccc(NCCF)cc4)nc23)c1: < 50%
C=CC(=O)Nc1cccc(-c2cccc3cnc(Nc4ccc(N5CCN(C(=O)OC)CC5)cc4)nc23)c1: < 50%

# batch size: 4; output inhibition at 0.041 µM per entry
1. C=CC(=O)Nc1cccc(-c2cccc3cnc(Nc4ccc(N5CCCC5=O)cc4)nc23)c1
2. C=CC(=O)Nc1cccc(-c2cccc3cnc(Nc4ccc(NC5CN(CCF)C5)cc4)nc23)c1
3. C=CC(=O)Nc1cccc(-c2cccc3cnc(Nc4ccc(NCC(F)F)cc4)nc23)c1
4. C=CC(=O)Nc1cccc(-c2cccc3cnc(Nc4ccc(N5CCN(C)CC5)c(OC)c4)nc23)c1

1: < 50%; 2: < 50%; 3: < 50%; 4: > 50%

# batch size: 8; output inhibition at 0.041 µM per entry
1. C=CC(=O)Nc1cccc(-c2cccc3cnc(Nc4ccc(O[C@H]5CCN(C(C)=O)C5)cc4)nc23)c1
2. C=CC(=O)Nc1cccc(-c2cccc3cnc(Nc4ccc(OC5CN(CCF)C5)cc4)nc23)c1
3. C=CC(=O)Nc1cccc(-c2cccc3cnc(Nc4ccc(N[C@@H]5CCN(C(C)=O)C5)cc4)nc23)c1
4. C=CC(=O)Nc1cccc(-c2cccc3cnc(Nc4ccc(N5CCN(C)CC5)c(Cl)c4)nc23)c1
5. C=CC(=O)Nc1cccc(-c2cccc3cnc(Nc4ccc(N5CCN(C)CC5)c(C#N)c4)nc23)c1
6. C=CC(=O)Nc1cccc(-c2cccc3cnc(Nc4ccc(OC5CCN(C(C)=O)CC5)cc4)nc23)c1
7. C=CC(=O)Nc1cccc(-c2cccc3cnc(Nc4ccc(N5CCN(CC(C)(C)O)CC5)cc4F)nc23)c1
8. C=CC(=O)Nc1cccc(-c2cccc3cnc(Nc4ccc(NC5CN(C(C)=O)C5)cc4)nc23)c1

1. < 50%
2. > 50%
3. < 50%
4. < 50%
5. < 50%
6. < 50%
7. < 50%
8. < 50%

# batch size: 6; output inhibition at 0.041 µM per entry
1. C=CC(=O)Nc1cccc(-c2cccc3cnc(Nc4ccc(N5CCN(C)CC5)cc4C(=O)OC)nc23)c1
2. C=CC(=O)Nc1cccc(-c2cccc3cnc(Nc4ccc(NC5CCN(C)CC5)cc4)nc23)c1
3. C=CC(=O)Nc1cccc(-c2cccc3cnc(Nc4ccc(N5CCN(CCOC)CC5)cc4)nc23)c1
4. C=CC(=O)Nc1cccc(-c2cccc3cnc(Nc4ccc(N5CCN(S(C)(=O)=O)CC5)cc4)nc23)c1
5. C=CC(=O)Nc1cccc(-c2cccc3cnc(Nc4ccc(N5CCN(C(=O)CC)CC5)cc4)nc23)c1
6. C=CC(=O)Nc1cccc(-c2cccc3cnc(Nc4ccc(N5CCN(CC(N)=O)CC5)c(F)c4)nc23)c1

1: < 50%; 2: > 50%; 3: < 50%; 4: < 50%; 5: < 50%; 6: < 50%

# batch size: 5; output inhibition at 0.041 µM per entry
1. C=CC(=O)Nc1cccc(-c2cccc3cnc(Nc4ccc(N5CCN(C)C(=O)C5)cc4)nc23)c1
2. C=CC(=O)Nc1cccc(-c2cccc3cnc(Nc4ccc(N[C@H]5CCN(C(C)=O)C5)cc4)nc23)c1
3. C=CC(=O)Nc1cccc(-c2cccc3cnc(Nc4ccc(N[C@H]5CCOC5)cc4)nc23)c1
4. C=CC(=O)Nc1ccc(Cl)c(-c2cccc3cnc(Nc4ccc(N5CCN(C)CC5)cc4)nc23)c1
5. C=CC(=O)Nc1cccc(-c2cccc3cnc(Nc4ccc(NC5CCN(CCO)CC5)cc4)nc23)c1

1: < 50%; 2: < 50%; 3: < 50%; 4: < 50%; 5: > 50%

# batch size: 2; output inhibition at 0.041 µM per entry
1. C=CC(=O)Nc1cccc(-c2cccc3cnc(Nc4ccc(OC5CCN(CCO)CC5)cc4F)nc23)c1
2. C=CC(=O)Nc1cccc(-c2cccc3cnc(Nc4ccc(NC5CCOCC5)cc4)nc23)c1

> 50%
< 50%
